Entry source: PubChem BioAssay (NCI)

# Tested on: M14 melanoma
# TEST_PROTOCOL: NCI tumour cell line growth inhibition, 48 h
METRIC: TGI

[[record]]
compound = "CC[C@@H]([C@H](O)c1ccccc1Cl)[N+](=O)[O-]"
metric = "TGI"
measured_result = "> 100 µM"

[[record]]
compound = "O=C(NNc1ccccc1)c1ccc(Cl)c(Cl)c1"
metric = "TGI"
measured_result = "> 100 µM"

[[record]]
compound = "CCCCCCCCCC(=O)NC(CCC(=O)N(CCNC(=O)c1nc(-c2ccccc2)oc1-c1ccccc1)Cc1ccccc1)C(=O)O (configuration not stated)"
metric = "TGI"
measured_result = "28.3 µM"

[[record]]
compound = "NNC(=O)c1cc([N+](=O)[O-])ccc1NC(=O)C12CC3CC(CC(C3)C1)C2"
metric = "TGI"
measured_result = "> 100 µM"

[[record]]
compound = "c1csc(-c2ccc(CNc3c4ccccc4nc4ccccc34)cc2)c1"
metric = "TGI"
measured_result = "3.4 µM"


Parameter requested: TGI. Apply to each item below.
1. CCC[CH2][Sn]([CH2]CCC)([O]C(=O)c1cc(F)ccc1F)[O]C(=O)c1cc(F)ccc1F
2. CC(NP(=O)(c1ccccc1)c1ccccc1)c1ccccc1 (configuration not stated)
3. Clc1ccc(C(Cc2ccccc2)c2c(Cl)nc(N3CCNCC3)nc2Cl)cc1 (configuration not stated)
4. O=c1[nH]nc(-c2ccccc2)n1-c1cccc([N+](=O)[O-])c1
5. C[C@]12CC(C=O)C(=O)C(O)=C1CC[C@@H]1C2CC[C@@]2(C)C1CC[C@]2(C)O (some centres not stated)
6. Cc1cc2c(nn1)CCc1c-2no[n+]1[O-]

Data returned:
1. 2.81 µM
2. > 100 µM
3. 29.7 µM
4. > 100 µM
5. 35 µM
6. > 100 µM

Parameter requested: TGI. Apply to each item below.
1. C=CCC(N[C@H](CO)c1ccccc1)c1ccccn1 (some centres not stated)
2. CC(C)(C)n1c(=O)n(-c2ccccc2)n(C(C)(C)C)c1=O
3. CSC1(C(=O)O)C2CCC3C2CCC31 (configuration not stated)
4. CCCCCCCCCCCCCCCCCCOCC(C[N+]1(C)CCC(O)CC1)OCC (configuration not stated)

Data returned:
1: > 100 µM; 2: > 100 µM; 3: > 100 µM; 4: 23.4 µM

Parameter requested: TGI. Apply to each item below.
1. C=CCSC1=N/C(=C\c2ccc(OC)cc2)C(=O)N1CC=C
2. COc1ccc2c(CCCc3ccc(Cl)cc3Cl)c3[n+](cc2c1OC)CCc1cc2c(cc1-3)OCO2
3. O=[N+]([O-])c1cccc(-c2cn3c(n2)Cc2ccccc2C3)c1

Data returned:
1: > 100 µM; 2: 1.88 µM; 3: > 100 µM

Parameter requested: TGI. Apply to each item below.
1. O=c1oc2ccccc2c(O)c1C(c1cccc(C(c2c(O)c3ccccc3oc2=O)c2c(O)c3ccccc3oc2=O)c1)c1c(O)c2ccccc2oc1=O
2. O=C(Cn1c(C(=O)/C=C/c2ccc(Cl)cc2)nc2ccccc21)c1ccc(Cl)cc1
3. CC(C)[C@@H]1CC[C@@H](C)C[C@H]1OC(=O)/C=C1\C(C(=O)O[C@@H]2C[C@H](C)CC[C@H]2C(C)C)[C@H]2C=C[C@@H]1O2 (some centres not stated)
4. O=C(COC(=O)c1cccc2c(=O)c3ccccc3[nH]c12)Nc1ccc(Cl)cc1
5. CSc1ncc2c(C#N)c3[nH]c4ccccc4n3c(=O)c2n1
6. COc1cc2c3c(n(CCN4CCOCC4)c(=O)c2cc1OC)-c1ccccc1C3=O
7. CCOC(=O)c1csc(C(CSCc2ccc(OC)cc2)N2C(=O)c3ccccc3C2=O)n1 (configuration not stated)

Data returned:
1. > 100 µM
2. 43.6 µM
3. > 100 µM
4. > 100 µM
5. > 100 µM
6. > 100 µM
7. > 100 µM

Parameter requested: TGI. Apply to each item below.
1. COc1cc(C2c3cc4c(cc3[C@@H](Nc3ccc([N+](=O)[O-])cc3)C3COC(=O)[C@H]23)OCO4)cc(OC)c1O (some centres not stated)
2. COc1cc(NCCC(=O)O)c2ncccc2c1
3. O=NN1CCN=C1c1ccc([N+](=O)[O-])cc1
4. C=C1C2CC3CCC2C(OC(=O)c2ccccc2C(=O)O)C13 (configuration not stated)
5. COC(=O)c1ccc(C(=O)OC)c2nc3cc(Cl)ccc3nc12

Data returned:
["12.7 µM", "> 100 µM", "> 100 µM", "> 100 µM", "> 100 µM"]

Parameter requested: TGI. Apply to each item below.
1. CC(=O)N1C(CCc2ccccc2)CC(C)(C=O)C1Cc1ccc(O[Si](C(C)C)(C(C)C)C(C)C)cc1 (configuration not stated)
2. COc1ccc(C[C@@H](C(=O)O[C@H](C)[C@H](NC(=O)[C@@H](CC(C)C)N(C)C(=O)C2CCCN2C(=O)[C@H](C)O)C(=O)N2CCCCNC(=O)[C@@H](C)C(=O)[C@H](C(C)C)OC(=O)C[C@H](O)[C@H]2CC(C)C)N(C)C(C)=O)cc1 (some centres not stated)

Data returned:
1: 4.49 µM; 2: > 50 µM

* * *

Give TGI for every item shown.
# System: HCC-2998 colon
# TEST_PROTOCOL: NCI tumour cell line growth inhibition, 48 h

[[record]]
molecule = "C[C@@H](NC(=O)Cn1c(Cl)nc2ccccc21)c1ccccc1"
metric = "TGI"
measured_result = "> 100 µM"

[[record]]
molecule = "O=[N+]([O-])c1cccc(S(=O)(=O)N/N=C/c2cc(I)cc([N+](=O)[O-])c2O)c1"
metric = "TGI"
measured_result = "> 100 µM"

[[record]]
molecule = "CC[C@@H]([C@H](O)c1ccccc1Cl)[N+](=O)[O-]"
metric = "TGI"
measured_result = "> 100 µM"

[[record]]
molecule = "Cc1nc2c(O)c3c(c(O)c2nc1C)C1C=CC3CC1"
metric = "TGI"
measured_result = "> 59.2 µM"

[[record]]
molecule = "O=c1[nH]nc(-c2ccccc2)n1-c1cccc([N+](=O)[O-])c1"
metric = "TGI"
measured_result = "> 100 µM"


Then this compound:
Data request: Quick one: TGI of CCOC(=O)C(=O)Nc1c(C)cccc1C(C)(C)C ?
Data returned: > 100 µM

* * *

# Tested on: MOLT-4 leukemia
# TEST_PROTOCOL: NCI tumour cell line growth inhibition, 48 h
Give TGI for every item shown.

Parameter requested: TGI. Apply to each item below.
1. C[C@@H](NC(=O)Cn1c(Cl)nc2ccccc21)c1ccccc1
2. Nc1ccc(Cn2ccc3c4c(N)nc(N)nc4ccc32)cc1

Data returned:
["> 100 µM", "> 51.7 µM"]

Parameter requested: TGI. Apply to each item below.
1. CC(C)(C)n1c(=O)n(-c2ccccc2)n(C(C)(C)C)c1=O
2. N#CC(C(=N/O)/C(=N\O)C(C#N)c1ccccc1)c1ccccc1 (stereo unspecified)
3. CC(=O)c1ccc2c3c1[C@H]1O[C@H]1c1cccc(c1-3)[C@@H]1O[C@H]21

Data returned:
1. > 100 µM
2. > 100 µM
3. > 32.6 µM

Data request: Quick one: TGI of CN(/N=C/C=N/N(C)C1=NCCCN1)C1=NCCCN1 ?
Data returned: > 100 µM

* * *

# Tested on: SR leukemia
# TEST_PROTOCOL: NCI tumour cell line growth inhibition, 48 h
Give TGI for every item shown.

[[record]]
compound = "C[C@H](c1ccccc1)n1c(N)c(-c2nc3ccccc3s2)c2ccc([N+](=O)[O-])cc2c1=O"
metric = "TGI"
measured_result = "13 µM"


Parameter requested: TGI. Apply to each item below.
1. O=C(O)/C(Cl)=C(Cl)/C=N/NC(=O)c1cc2ccccc2cc1O
2. COc1ccc2cc(CN3CCC(C4CCN(Cc5ccc6cc(OC)ccc6c5)CC4)CC3)ccc2c1
3. CCN(CC)S(=O)(=O)c1cccc(-c2ccc3c(NC(=O)C4CC4)n[nH]c3c2)c1
4. NC(=O)C(=O)C1C(=O)N(c2ccccc2)N=C1N (stereo not given)

Data returned:
39.3 µM
3.6 µM
> 6.25 µM
> 100 µM

* * *

# System: KM12 colon
# TEST_PROTOCOL: NCI tumour cell line growth inhibition, 48 h
METRIC: TGI

The cases that follow already have their TGI on record.
[[record]]
compound = "C[C@H](c1ccccc1)n1c(N)c(-c2nc3ccccc3s2)c2ccc([N+](=O)[O-])cc2c1=O"
measured_result = "61.2 µM"

[[record]]
compound = "CC1(C2COC(=O)C2)SCCCS1 (stereo not drawn)"
measured_result = "> 100 µM"

[[record]]
compound = "O=C(OCc1ccccc1)c1ccc(NCc2cc(O)ccc2O)cc1"
measured_result = "3.62 µM"


Parameter requested: TGI. Apply to each item below.
1. CC(=O)O[C@@H]1C2=C(C)C3(CC3)[C@@](C)(O)C(=O)C2=C[C@@]1(C)CO
2. CCO[C@@]12CCC3CC4CC[C@@](OCC)(O1)C4C32 (stereo partly drawn)
3. CCN(CC)S(=O)(=O)c1cccc(-c2ccc3c(NC(=O)C4CC4)n[nH]c3c2)c1

Data returned:
["8.59 µM", "> 100 µM", "> 6.25 µM"]
